Data provenance is patent US20240360228A1.

# testSystem: T1, human chemokine (C-C motif) receptor 8 (CCR8) (human, UniProt P51685 1-355)
# T1 construct: On human peripheral blood lymphocytes / PBMC (native) or on human CCR8 GFP-transfected Ba/F3 cells; also called hCCR8; human CCR8
# T1 sequence (P51685 whole entry): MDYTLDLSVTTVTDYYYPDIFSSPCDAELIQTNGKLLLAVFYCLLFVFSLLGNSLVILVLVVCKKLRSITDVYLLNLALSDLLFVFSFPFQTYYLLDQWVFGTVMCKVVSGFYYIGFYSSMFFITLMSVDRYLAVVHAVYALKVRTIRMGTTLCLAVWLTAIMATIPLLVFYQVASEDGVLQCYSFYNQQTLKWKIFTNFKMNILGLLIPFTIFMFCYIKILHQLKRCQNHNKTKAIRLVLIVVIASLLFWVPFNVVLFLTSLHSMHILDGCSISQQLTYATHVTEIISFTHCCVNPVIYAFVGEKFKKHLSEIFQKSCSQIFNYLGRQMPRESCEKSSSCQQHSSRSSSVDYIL
# assayMethodText: flow cytometry blocking, PBMC CCR8+ CD4+ cells; competitor PE-AB10 (its MFI is read)
Give measured % Blocking for each item. Keep answers brief.
Numbers only, in %.

[[record]]
binder = "AB2 (antibody, V domains shown, Hybridoma monoclonal; also called antibody 2; clone 2) VH: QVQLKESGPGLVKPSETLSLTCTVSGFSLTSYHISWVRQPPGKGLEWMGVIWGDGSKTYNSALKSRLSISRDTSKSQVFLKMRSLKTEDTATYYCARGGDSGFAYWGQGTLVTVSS VL: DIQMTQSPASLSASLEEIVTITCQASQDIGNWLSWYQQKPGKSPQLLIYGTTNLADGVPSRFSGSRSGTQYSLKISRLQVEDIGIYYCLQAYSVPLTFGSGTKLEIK"
recordedvalue = -8.07


Query: For the binder AB13 (antibody, V domains shown, Hybridoma monoclonal; also called antibody 13; clone 13) VH: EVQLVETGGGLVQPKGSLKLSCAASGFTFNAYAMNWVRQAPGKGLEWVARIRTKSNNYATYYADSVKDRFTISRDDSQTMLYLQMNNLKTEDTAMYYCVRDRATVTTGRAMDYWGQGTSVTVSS VL: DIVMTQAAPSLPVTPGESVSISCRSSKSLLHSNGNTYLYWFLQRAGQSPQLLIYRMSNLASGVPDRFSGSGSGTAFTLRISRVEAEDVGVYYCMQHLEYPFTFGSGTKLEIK , report % Blocking.
Result: -36.6
